Test system: CEM cells HIV-1 protection, formazan growth assay
assay details: NCI AIDS Antiviral Assay
Method: The ability of compounds to protect human CEM cells from HIV-1 infection is measured as a screen for new compounds capable of inhibiting the HIV virus. Five concentrations of drug were tested on uninfected and infected cells and cell growth was measured using a soluble formazan assay. […] Compounds that provided at least 50% protection were retested. Compounds that provided at least 50% protection on retest were listed as moderately active. […]
attribute measured: EC50

Reference set (3 entries):
[
  {
    "compound": "C1N2CN3CN1CN(C2)C3",
    "result": "> 200 µM"
  },
  {
    "compound": "O=C1CCC(c2nc3cc(Cl)ccc3o2)C(=O)N1 (configuration not stated)",
    "result": "> 245 µM"
  },
  {
    "compound": "Cc1ccc(S(=O)(=O)N2CCSCCSCCSCCN(S(=O)(=O)c3ccc(C)cc3)CC2)cc1",
    "result": "> 12.6 µM"
  }
]

So for O=CNC(CSSCC(NC=O)C(=O)O)C(=O)O (configuration not stated) , the logged EC50 turned out to be > 200 µM

Record Cc1cn(COCCSCc2ccccc2)c(=O)[nH]c1=O , field EC50: 58.9 µM

Summary for this compound, c1ccc2c(c1)cnc1c3ccccc3nn21 : EC50 is > 17.4 µM

Form: compound = CN(C)P1(=O)OCC(C(C)(C)C)CN1c1ccccc1 (configuration not stated) ; EC50 = > 200 µM

For reference, reported EC50 for CCCN(CCC)CCc1ccc(OC2=CCN(C)CC2)cc1 stands at > 200 µM

Reported EC50 ( Cc1no[n+]([O-])c1/C=N/NS(=O)(=O)c1ccccc1 ) = > 891 µM

The compound listed as O=C1C=C(Nc2ccc([N+](=O)[O-])cc2)c2ccccc2C1=O shows EC50 equal to > 6.76 µM

Short answer for NC(=O)c1ccc[n+](C2=C([O-])c3ccccc3C(=O)/C2=N\S(=O)(=O)c2ccccc2)c1 : EC50 was > 200 µM

For this compound ( c1cnc2c(c1)Nc1cnncc1S2 ), measured EC50 is > 200 µM
